Tgt: F508delCFTR (Homo sapiens, UniProt P13569, DEL508-508)
Construct: expressed in transfected cells; host or cells: CFBE41o- human lung derived epithelial cells (CFBE41o-F508delCFTR-HRP), doxycycline-inducible
Sequence (P13569 with tags, fused parts or gaps DEL508-508): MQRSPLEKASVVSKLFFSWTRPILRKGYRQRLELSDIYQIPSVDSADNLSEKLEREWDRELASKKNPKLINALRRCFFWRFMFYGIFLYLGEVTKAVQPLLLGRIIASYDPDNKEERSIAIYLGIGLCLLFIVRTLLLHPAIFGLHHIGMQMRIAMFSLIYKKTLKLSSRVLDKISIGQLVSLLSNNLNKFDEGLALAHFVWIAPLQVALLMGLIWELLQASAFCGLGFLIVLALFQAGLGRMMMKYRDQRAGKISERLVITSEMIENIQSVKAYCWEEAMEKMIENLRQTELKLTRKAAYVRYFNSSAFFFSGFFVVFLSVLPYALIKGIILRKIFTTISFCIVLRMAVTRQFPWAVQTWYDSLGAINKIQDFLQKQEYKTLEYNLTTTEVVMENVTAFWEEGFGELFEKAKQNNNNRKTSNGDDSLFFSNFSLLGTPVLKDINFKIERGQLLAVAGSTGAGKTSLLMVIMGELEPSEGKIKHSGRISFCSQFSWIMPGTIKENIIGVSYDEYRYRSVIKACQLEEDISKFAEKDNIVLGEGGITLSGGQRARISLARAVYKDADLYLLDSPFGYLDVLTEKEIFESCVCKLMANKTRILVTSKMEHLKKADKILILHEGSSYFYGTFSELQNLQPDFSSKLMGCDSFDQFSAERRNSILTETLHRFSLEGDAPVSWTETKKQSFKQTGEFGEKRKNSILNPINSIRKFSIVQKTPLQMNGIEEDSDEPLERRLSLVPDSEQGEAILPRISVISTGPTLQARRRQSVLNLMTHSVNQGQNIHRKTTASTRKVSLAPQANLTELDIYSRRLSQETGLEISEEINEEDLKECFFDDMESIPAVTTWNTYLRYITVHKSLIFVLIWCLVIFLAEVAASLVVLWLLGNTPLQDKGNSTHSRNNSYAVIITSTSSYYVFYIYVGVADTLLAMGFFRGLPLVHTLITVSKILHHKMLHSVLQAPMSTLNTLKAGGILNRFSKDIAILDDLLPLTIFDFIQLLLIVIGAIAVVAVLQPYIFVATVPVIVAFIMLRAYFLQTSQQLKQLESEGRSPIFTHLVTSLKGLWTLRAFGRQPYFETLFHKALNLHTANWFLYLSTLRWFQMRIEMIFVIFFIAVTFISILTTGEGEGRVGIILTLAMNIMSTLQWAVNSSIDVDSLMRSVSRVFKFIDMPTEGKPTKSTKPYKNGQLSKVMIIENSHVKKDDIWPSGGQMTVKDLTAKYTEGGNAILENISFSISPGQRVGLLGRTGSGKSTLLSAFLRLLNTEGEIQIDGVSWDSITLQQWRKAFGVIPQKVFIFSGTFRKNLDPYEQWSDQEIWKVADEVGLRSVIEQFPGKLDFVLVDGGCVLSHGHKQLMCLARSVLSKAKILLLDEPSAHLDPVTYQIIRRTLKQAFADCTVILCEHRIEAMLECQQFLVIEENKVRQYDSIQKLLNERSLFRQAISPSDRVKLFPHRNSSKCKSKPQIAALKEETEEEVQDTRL
Protocol description: Cell Surface Expression-Horse Radish Peroxidase (CSE-HRP) Assay;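 for Maximum % activity (without co-corrector): % of on-plate positive control chromenyl benzoic acid corrector at 2 or 3 µM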
Type: cell-based
Condition set: test compound without co-corrector; maximum at any tested concentration; read-out: Maximum % activity (without co-corrector)
Measured Emax of individual entries

The molecule listed as `COc1cc(OC(C)C)c(C2(C(=O)NS(=O)(=O)c3cccc4c3CCCN4)CC2)cn1` shows Emax equal to 50 to 150%

Record `COc1nc(N)ccc1C1(C(=O)NS(=O)(=O)c2cccc3ncccc23)CC1` , field Emax: < 50%

Per the records, this molecule ( `COc1ccc(C2(C(=O)NS(=O)(=O)c3cccc4c3CCCN4)CC2)c(C)n1` ) has Emax equal to < 50%

`CC(C)Oc1cnc(Cl)c(C2(C(=O)NS(=O)(=O)c3cccc4ncccc34)CC2)c1` yielded Emax of < 50%

So, `CC(C)COc1ncc(C2CC2)cc1C1(C(=O)NS(=O)(=O)c2cccc3ncccc23)CC1` ? Its Emax was > 150%

The molecule `CC(C)Oc1ncccc1C1(C(=O)NS(=O)(=O)c2cccc3ncccc23)CC1` showed Emax equal to 50 to 150%

Query `COCCOc1ncc(OC)cc1C1(C(=O)NS(=O)(=O)c2cccc3nc(C)ccc23)CC1` yields Emax of 50 to 150%

Emax recorded for this molecule, `CCOc1ncc(CC)cc1C1(C(=O)NS(=O)(=O)c2cccc3ncccc23)CC1` , is > 150%

The measured Emax associated with `CCc1cnc(N2CCCC2)c(C2(C(=O)NS(=O)(=O)c3cccc4[nH]ccc34)CC2)c1` reads > 150%

Summary for this molecule, `COc1cc(C)c(C2(C(=O)NS(=O)(=O)c3cccc4ccccc34)CC2)cn1` : Emax is > 150%

GET /value?item= `CCc1ncc(OC(C)C)cc1C1(C(=O)NS(=O)(=O)c2cccc3ncccc23)CC1` &field=Emax returns 50 to 150%

Query `Cc1ccc(C2(C(=O)NS(=O)(=O)c3cccc4ncccc34)CC2)c(OC(C)C)n1` yields Emax of > 150%

// recorded Emax for `Cc1ccc2c(S(=O)(=O)NC(=O)C3(c4cccnc4N4CCCC4)CC3)cccc2n1` : 50 to 150%

Documented Emax of `COc1ncc(C2(C(=O)NS(=O)(=O)c3cccc4ncccc34)CC2)c(OC)n1` : < 50%

###

Tgt: F508delCFTR (Homo sapiens, UniProt P13569, DEL508-508)
Construct: expressed in transfected cells; host or cells: CFBE41o- human lung derived epithelial cells (CFBE41o-F508delCFTR-HRP), doxycycline-inducible
Protocol description: Cell Surface Expression-Horse Radish Peroxidase (CSE-HRP) Assay
Format: cell-based
Condition set: test compound without co-corrector; read-out: EC50 (without co-corrector)
pEC50: −log10 of the molar value.
Assay readout: pEC50

# Smiles str, Tgt, pEC50
records = [
    ("COc1cnc(OC(C)C)c(C2(C(=O)NS(=O)(=O)c3cccc4[nH]ccc34)CC2)c1", "F508delCFTR (Homo sapiens, UniProt P13569, DEL508-508)", "5.00 to 5.52"),
    ("CCc1ccc(OC(C)C)c(C2(C(=O)NS(=O)(=O)c3cccc4[nH]ccc34)CC2)n1", "F508delCFTR (Homo sapiens, UniProt P13569, DEL508-508)", "5.00 to 5.52"),
    ("CC(C)COc1ncc(C2CC2)cc1C1(C(=O)NS(=O)(=O)c2cccc3ncccc23)CC1", "F508delCFTR (Homo sapiens, UniProt P13569, DEL508-508)", "> 5.52"),
    ("CCc1cnc(N2CCC(OC(C)C)CC2)c(C2(C(=O)NS(=O)(=O)c3cccc4[nH]ccc34)CC2)c1", "F508delCFTR (Homo sapiens, UniProt P13569, DEL508-508)", "5.00 to 5.52"),
    ("CCc1cnc(N2CCC(COC)CC2)c(C2(C(=O)NS(=O)(=O)c3cccc4ncccc34)CC2)c1", "F508delCFTR (Homo sapiens, UniProt P13569, DEL508-508)", "5.00 to 5.52"),
]

Data point: `COC1CCN(c2ncc(C3CCC3)cc2C2(C(=O)NS(=O)(=O)c3cccc4[nH]ccc34)CC2)CC1` ; pEC50 = > 5.52

For record `COc1cc(C2(C(=O)NS(=O)(=O)c3cccc4nc(C)ccc34)CC2)c(OCC(F)F)cn1` the listed pEC50 is 5.00 to 5.52

Record `COc1cnc(OC(C)C)c(C2(C(=O)NS(=O)(=O)c3cccc4nc(C)ccc34)CC2)c1` . Reported pEC50: > 5.52

The compound `O=C(NS(=O)(=O)c1cccc2ncccc12)C1(c2ccc(C(F)(F)F)nc2Cl)CC1` showed pEC50 equal to < 5.00

Record `COCCOc1ncc(C2CCC2)cc1C1(C(=O)NS(=O)(=O)c2cccc3[nH]ccc23)CC1` . Reported pEC50: > 5.52

Sample `Cc1cnc(OC(C)C)c(C2(C(=O)NS(=O)(=O)c3cccc4[nH]ccc34)CC2)c1` ; pEC50 observed: 5.00 to 5.52

Short answer for `Cc1cnc(N2CCCC2)cc1C1(C(=O)NS(=O)(=O)c2cccc3ncccc23)CC1` : pEC50 was 5.00 to 5.52

Just so you know, measured pEC50 for `Cc1ccc(C2(C(=O)NS(=O)(=O)c3cccc4[nH]ccc34)CC2)c(OC(C)C)n1` came out at > 5.52

So for `O=C(NS(=O)(=O)c1cccc2c1CCCN2)C1(c2cc(C3CC3)cnc2N2CCCC2)CC1` , the logged pEC50 turned out to be 5.00 to 5.52

For reference, reported pEC50 for `CC(C)Oc1ncc(N2CCC2)cc1C1(C(=O)NS(=O)(=O)c2cccc3[nH]ccc23)CC1` stands at 5.00 to 5.52

GET /value?item= `Cc1cnc(N(C)C)c(C2(C(=O)NS(=O)(=O)c3cccc4ncccc34)CC2)c1` &field=pEC50 returns 5.00 to 5.52

// sample `CCc1cnc(OC(C)C)c(C2(C(=O)NS(=O)(=O)c3cccc4[nH]ccc34)CC2)c1` , its pEC50 was > 5.52
